# Tested system: CRAC channel (Homo sapiens)
# Construct: host or cells: HEK293
# Sequence (Q96D31 whole entry): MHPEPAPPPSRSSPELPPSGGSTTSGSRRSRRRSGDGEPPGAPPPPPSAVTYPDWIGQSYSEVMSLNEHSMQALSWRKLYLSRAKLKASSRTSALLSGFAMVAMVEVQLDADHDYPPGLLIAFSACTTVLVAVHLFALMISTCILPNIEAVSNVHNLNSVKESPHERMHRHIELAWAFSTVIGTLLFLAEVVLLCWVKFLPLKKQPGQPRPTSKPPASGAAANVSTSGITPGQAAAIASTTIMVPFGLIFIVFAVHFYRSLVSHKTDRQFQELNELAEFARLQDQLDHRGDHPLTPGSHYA
# Test name: HEK Calcium Influx Assay (FLIPR)
# Format: cell-based
# Protocol conditions: 10 μM; endogenous SOC in HEK293 cells, thapsigargin store depletion, Ca2+ signal 9.5-10 min post-administration; read-out: % inhib.[@ 10 μM] FLIPR
Observable: inhibition at 10 µM

Solved entries (count: 4):
COc1ccc(OC(F)(F)F)c(-c2cc(C(=O)Nc3ccncc3F)nn2C)c1 [Example 9]: > 70%
Cn1nc(C(=O)Nc2ccccc2C(F)(F)F)cc1-c1c(F)cccc1C(F)(F)F [Example 60]: > 70%
Cc1ccc(Cl)cc1-c1cc(C(=O)Nc2ccncc2F)nn1C [Example 23]: 50 to 70%
COc1ccc(OC)c(-c2c(N)c(C(=O)Nc3ccncc3F)nn2C)c1 [Example 48]: > 70%

Which inhibition at 10 µM value is on record for Cn1nc(C(=O)Nc2c(F)cccc2F)cc1-c1cc(OC(F)(F)F)ccc1C1CC1 [Example 45] ?
> 70%
